Below, each of the compounds is paired with its reported inhibition at 10 µM value.
biological target: mA1AR (Mus musculus (Mouse)); assay: Competition binding at mA1AR, HEK293 cell membranes; details: read-out: A1AR % inhibition, mouse data (m)
Sequence (Q60612 whole entry): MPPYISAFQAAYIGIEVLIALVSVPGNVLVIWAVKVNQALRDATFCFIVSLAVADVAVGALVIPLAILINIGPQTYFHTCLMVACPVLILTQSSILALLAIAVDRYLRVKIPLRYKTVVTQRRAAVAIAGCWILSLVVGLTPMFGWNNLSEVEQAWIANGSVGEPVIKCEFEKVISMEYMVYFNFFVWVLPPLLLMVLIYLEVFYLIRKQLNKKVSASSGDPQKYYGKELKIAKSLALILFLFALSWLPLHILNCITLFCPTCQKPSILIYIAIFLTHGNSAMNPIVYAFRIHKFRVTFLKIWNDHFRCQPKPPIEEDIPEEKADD
# number only, unit % dropped from output

CNC(=O)[C@@]12C[C@@H]1[C@@H](n1cnc3c(NC)nc(C#Cc4cnn(C)c4)nc31)[C@H](O)[C@@H]2O    72
CNC(=O)[C@@]12C[C@@H]1[C@@H](n1cnc3c(NC)nc(C#Cc4ccco4)nc31)[C@H](O)[C@@H]2O    59
CNC(=O)[C@@]12C[C@@H]1[C@@H](n1cnc3c(NC)nc(C#Cc4ccc(Cl)s4)nc31)[C@H](O)[C@@H]2O    38

Here is another compound to look at.
What inhibition at 10 µM value was documented for this compound, CNC(=O)[C@@]12C[C@@H]1[C@@H](n1cnc3c(NC)nc(C#Cc4cccs4)nc31)[C@H](O)[C@@H]2O ? 47

----------
test system: chronic constriction injury model of neuropathic pain; assay: CCI model of neuropathic pain, reversal of mechano-allodynia; format: in vivo, mice; details: 3 μmol/kg p.o., mice, ipsilateral hind paw
readout: Time of peak protection (h)
The answer is to be given in h; state only the numeric part.

Known Time of peak protection results, listed for orientation:
CNC(=O)[C@]12CC1[C@@H](n1cnc3c(NC)nc(-n4cc(-c5ncccn5)nn4)nc31)[C@H](O)C2O (stereo partly drawn) [Compound 104]    1
CNC(=O)[C@]12CC1[C@@H](n1cnc3c(NC)nc(-n4cc(-c5ccccn5)nn4)nc31)[C@H](O)C2O (stereo partly drawn) [Compound 103]    1

Requested field: Time of peak protection. Item: CNC(=O)[C@]12CC1[C@@H](n1cnc3c(NC)nc(-n4cc(-c5cnn(C)c5)nn4)nc31)[C@H](O)C2O (stereo partly drawn) [Compound 106] 1

----------
Molecular target: SERT (Homo sapiens (Human))
Sequence (P31645 whole entry, species assumed): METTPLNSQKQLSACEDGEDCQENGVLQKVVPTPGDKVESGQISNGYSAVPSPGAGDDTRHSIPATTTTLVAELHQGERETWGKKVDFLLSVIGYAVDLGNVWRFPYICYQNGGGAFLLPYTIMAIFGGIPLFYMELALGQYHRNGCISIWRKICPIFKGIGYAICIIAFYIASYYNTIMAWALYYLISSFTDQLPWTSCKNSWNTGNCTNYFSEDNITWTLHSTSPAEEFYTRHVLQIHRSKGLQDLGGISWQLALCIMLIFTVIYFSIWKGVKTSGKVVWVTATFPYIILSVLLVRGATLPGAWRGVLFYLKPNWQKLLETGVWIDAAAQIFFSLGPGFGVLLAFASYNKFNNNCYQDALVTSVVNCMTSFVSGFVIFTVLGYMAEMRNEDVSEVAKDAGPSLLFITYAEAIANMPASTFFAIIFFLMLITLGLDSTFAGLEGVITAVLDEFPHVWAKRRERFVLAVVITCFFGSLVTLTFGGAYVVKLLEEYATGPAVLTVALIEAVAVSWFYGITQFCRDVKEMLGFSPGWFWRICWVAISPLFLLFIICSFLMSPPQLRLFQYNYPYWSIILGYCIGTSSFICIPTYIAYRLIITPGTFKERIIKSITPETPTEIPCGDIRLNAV
Assay: Off-target binding, SERT
Conditions: read-out: Ki class at SERT
Description: The results are set forth below.
readout: Ki

Entry CNC(=O)[C@@]12C[C@@H]1[C@@H](n1cnc3c(NC)nc(C#Cc4cnccn4)nc31)[C@H](O)[C@@H]2O [Compound 7] : reported Ki = ? > 10 µM

----------
# collection of pKi values tested on hA2AAR (Homo sapiens (Human), UniProt P29274)
# Sequence (P29274 whole entry): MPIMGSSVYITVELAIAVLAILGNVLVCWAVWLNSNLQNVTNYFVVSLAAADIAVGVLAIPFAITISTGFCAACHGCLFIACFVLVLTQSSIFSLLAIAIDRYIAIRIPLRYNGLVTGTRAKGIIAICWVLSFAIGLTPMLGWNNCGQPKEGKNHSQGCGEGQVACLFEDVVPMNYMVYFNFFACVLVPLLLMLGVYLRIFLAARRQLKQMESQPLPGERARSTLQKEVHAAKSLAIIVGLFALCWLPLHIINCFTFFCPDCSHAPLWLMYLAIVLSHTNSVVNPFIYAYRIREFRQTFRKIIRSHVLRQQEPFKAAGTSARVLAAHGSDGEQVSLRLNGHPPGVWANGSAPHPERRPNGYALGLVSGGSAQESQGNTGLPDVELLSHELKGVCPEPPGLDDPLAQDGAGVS
Please note pKi is a logarithmic value: minus log10 of concentration in mol/L. Answer with that number alone.

CNC(=O)[C@]12CC1[C@@H](n1cnc3c(NCc4cccc(Cl)c4)nc(N=[N+]=[N-])nc31)[C@H](O)C2O (stereo partly shown)    5.56

Next compound, pKi to be filled in.
Looking for the measured pKi of CNC(=O)[C@]12CC1[C@@H](n1cnc3cnc(C#Cc4ccccc4)nc31)[C@H](O)C2O (stereo partly shown) , can you help? 5.92

----------
biological target: h5HT2C (Homo sapiens, UniProt P28335); experiment: Off-target binding, 5HT2C; conditions: Ki at 5HT2C
Sequence (P28335 33-458 limits assumed): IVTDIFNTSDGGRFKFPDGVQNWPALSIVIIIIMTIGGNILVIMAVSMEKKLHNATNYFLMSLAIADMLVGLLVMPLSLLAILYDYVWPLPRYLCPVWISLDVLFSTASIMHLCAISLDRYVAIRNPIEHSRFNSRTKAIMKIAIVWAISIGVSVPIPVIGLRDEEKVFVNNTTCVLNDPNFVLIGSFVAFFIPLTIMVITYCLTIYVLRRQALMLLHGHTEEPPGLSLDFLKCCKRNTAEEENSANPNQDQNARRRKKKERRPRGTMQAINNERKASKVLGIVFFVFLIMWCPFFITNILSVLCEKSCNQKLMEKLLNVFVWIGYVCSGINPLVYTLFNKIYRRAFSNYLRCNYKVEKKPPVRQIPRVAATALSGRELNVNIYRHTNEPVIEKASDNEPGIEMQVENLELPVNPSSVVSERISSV
readout: pKi
Units for pKi: none; it is -log10 of a concentration expressed in mol/L.

Requested read-out: pKi. Entry: CNC(=O)C12CC1C(n1cnc3c(NCc4cccc(Cl)c4)nc(C#Cc4ccc(F)c(F)c4)nc31)C(O)C2O (single isomer, unassigned) 5.24

----------
target: h5HT2B (Homo sapiens (Human)); test: Off-target binding, 5HT2B; conditions: read-out: Ki at 5HT2B
Sequence (P41595 whole entry): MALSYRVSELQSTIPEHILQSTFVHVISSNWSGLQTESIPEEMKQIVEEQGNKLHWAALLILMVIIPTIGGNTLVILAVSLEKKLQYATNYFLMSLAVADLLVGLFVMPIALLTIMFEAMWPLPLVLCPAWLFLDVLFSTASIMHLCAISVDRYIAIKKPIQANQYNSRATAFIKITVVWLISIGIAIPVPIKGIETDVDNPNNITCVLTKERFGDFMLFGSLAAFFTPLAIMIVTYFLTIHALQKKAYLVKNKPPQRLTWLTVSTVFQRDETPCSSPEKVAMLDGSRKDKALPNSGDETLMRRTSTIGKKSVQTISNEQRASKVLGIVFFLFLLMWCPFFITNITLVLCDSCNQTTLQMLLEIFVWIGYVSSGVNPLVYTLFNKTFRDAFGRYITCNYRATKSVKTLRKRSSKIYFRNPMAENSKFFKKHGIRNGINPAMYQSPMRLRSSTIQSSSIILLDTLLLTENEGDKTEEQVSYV
readout: pKi
To interpret pKi, take it as minus log10 of a concentration measured in moles per litre.

# query: pKi | item CNC(=O)C12CC1C(n1cnc3c(NCc4cccc(Cl)c4)nc(C#Cc4ccc(F)c(F)c4)nc31)C(O)C2O (single isomer, unassigned) | system: h5HT2B (Homo sapiens (Human)) 5.59

----------
target: hA1AR (Homo sapiens (Human)); test: Radioligand binding at hA1AR, CHO cell membranes, [3H]R-PIA; conditions: read-out: hA1AR % inhibition
Sequence (P30542 whole entry): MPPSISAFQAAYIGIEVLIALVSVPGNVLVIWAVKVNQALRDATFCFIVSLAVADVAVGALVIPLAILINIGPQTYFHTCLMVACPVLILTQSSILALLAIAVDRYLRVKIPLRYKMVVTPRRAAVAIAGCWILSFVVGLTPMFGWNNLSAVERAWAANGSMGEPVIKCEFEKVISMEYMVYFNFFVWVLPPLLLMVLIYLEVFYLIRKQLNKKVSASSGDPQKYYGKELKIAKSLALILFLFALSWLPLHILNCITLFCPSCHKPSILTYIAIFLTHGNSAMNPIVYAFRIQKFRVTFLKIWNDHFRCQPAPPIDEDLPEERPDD
readout: inhibition at 10 µM
Note: a bare number is incomplete; add the unit.

CNC(=O)[C@@]12C[C@@H]1[C@@H](n1cnc3c(NC)nc(C#Cc4ccc(OC)cc4)nc31)[C@H](O)[C@@H]2O [Compound 11]    10%
CNC(=O)[C@@]12C[C@@H]1[C@@H](n1cnc3c(NC)nc(C#Cc4ccco4)nc31)[C@H](O)[C@@H]2O [Compound 17]    30%

Fill in the blank: the reported inhibition at 10 µM of CNC(=O)[C@@]12C[C@@H]1[C@@H](n1cnc3c(NC)nc(C#Cc4cccc(C(F)(F)F)c4)nc31)C(O)C2O (stereo in doubt) [Compound 14] is ____. 10%

----------
biological target: hA2AAR (Homo sapiens (Human)); assay: Radioligand binding at hA2AAR, HEK293 cell membranes, [3H]CGS21680; details: inhibition of binding at 10 μM
readout: hA2AAR % inhibition (%)
Respond with the bare value in %.

Reference set (3 entries):
CNC(=O)[C@]12CC1[C@@H](n1cnc3c(NC)nc(-n4cc(-c5cc6ccccc6o5)nn4)nc31)[C@H](O)C2O (stereo partly shown)    40
CCNc1nc(I)nc2c1ncn2[C@@H]1C2C[C@]2(C(=O)NC)C(O)[C@H]1O (stereo partly shown)    11
CNC(=O)[C@]12CC1[C@@H](n1cnc3c(NC)nc(N=[N+]=[N-])nc31)[C@H](O)C2O (stereo partly shown)    1

What does the data say about its hA2AAR % inhibition? Entry: CNC(=O)[C@]12CC1[C@@H](n1cnc3c(NC)nc(-n4cc(-c5ccccn5)nn4)nc31)[C@H](O)C2O (stereo partly shown) 26

----------
Reported half-life by item:
assay: Stability in liver microsomes, rat; format: in vitro ADME; conditions: liver microsomes, read-out: Stability in liver microsomes (t1/2, min): Rat

CNC(=O)[C@@]12C[C@@H]1[C@@H](n1cnc3c(NC)nc(C#Cc4ccc(Cl)s4)nc31)[C@H](O)[C@@H]2O    128 min

Okay, now this molecule:
Fill blank: measured half-life of the molecule CNC(=O)[C@@]12C[C@@H]1[C@@H](n1cnc3c(NC)nc(C#Cc4cnccn4)nc31)[C@H](O)[C@@H]2O is ____. > 145 min

----------
target: UniProt P08908; experiment: Off-target binding, 5HT1A; details: read-out: Ki at 5HT1A
Sequence (P08908 whole entry): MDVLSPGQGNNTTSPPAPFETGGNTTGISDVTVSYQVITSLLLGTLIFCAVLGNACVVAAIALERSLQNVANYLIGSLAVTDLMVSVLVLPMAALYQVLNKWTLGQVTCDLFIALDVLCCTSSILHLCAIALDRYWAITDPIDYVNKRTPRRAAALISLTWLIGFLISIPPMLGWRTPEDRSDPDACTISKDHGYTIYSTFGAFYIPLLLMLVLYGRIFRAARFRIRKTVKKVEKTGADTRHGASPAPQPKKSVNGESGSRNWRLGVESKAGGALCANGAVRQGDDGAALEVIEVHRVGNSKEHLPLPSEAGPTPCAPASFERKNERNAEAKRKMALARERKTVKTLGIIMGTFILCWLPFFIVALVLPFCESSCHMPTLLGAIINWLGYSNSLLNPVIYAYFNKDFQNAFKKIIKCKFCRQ
readout: Ki (µM)
The figure you give is taken to be in µM; do not add the unit.

Tell me reported Ki for CNC(=O)C12CC1C(n1cnc3c(NCc4cccc(Cl)c4)nc(C#Cc4ccc(F)c(F)c4)nc31)C(O)C2O (single isomer, unassigned) , tested with UniProt P08908. 7.6

----------
target: α1D adrenergic receptor (Homo sapiens (Human))
Sequence (P25100 whole entry): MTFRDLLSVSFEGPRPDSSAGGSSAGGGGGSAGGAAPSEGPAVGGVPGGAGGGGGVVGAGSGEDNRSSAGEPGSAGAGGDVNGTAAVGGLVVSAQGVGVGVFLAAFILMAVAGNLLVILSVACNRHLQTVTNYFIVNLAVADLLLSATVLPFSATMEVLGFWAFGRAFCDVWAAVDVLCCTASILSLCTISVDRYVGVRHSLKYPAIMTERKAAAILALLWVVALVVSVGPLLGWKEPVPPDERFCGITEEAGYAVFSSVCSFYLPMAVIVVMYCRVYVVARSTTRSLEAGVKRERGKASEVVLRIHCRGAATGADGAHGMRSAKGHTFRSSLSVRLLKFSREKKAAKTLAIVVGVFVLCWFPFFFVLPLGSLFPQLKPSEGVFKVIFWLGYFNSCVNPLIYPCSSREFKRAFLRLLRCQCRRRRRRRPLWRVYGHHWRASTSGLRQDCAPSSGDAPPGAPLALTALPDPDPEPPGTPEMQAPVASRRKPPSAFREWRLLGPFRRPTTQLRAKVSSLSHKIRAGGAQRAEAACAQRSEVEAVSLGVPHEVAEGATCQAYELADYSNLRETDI
readout: pKi
API: returns pKi as number; meaning -log10 of concentration in mol/L.

Please give the measured pKi for this compound: CNC(=O)[C@@]12C[C@@H]1[C@@H](n1cnc3c(NC)nc(C#Cc4cnccn4)nc31)[C@H](O)[C@@H]2O 5.37

----------
Measured IC50 values are reported for all entries that follow.
test system: CYP1A2, CYP2C9, CYP2C19, CYP2D6, CYP3A4; test: Inhibition of 5 CYP isozymes; assay type: in vitro ADME; settings: human

CNC(=O)[C@@]12C[C@@H]1[C@@H](n1cnc3c(NC)nc(C#Cc4ccc(Cl)s4)nc31)[C@H](O)[C@@H]2O [Compound 32]    > 10 µM

What measured IC50 goes with CNC(=O)[C@@]12C[C@@H]1[C@@H](n1cnc3c(NC)nc(C#Cc4cnccn4)nc31)[C@H](O)[C@@H]2O [Compound 7] ? > 10 µM

----------
experiment: Bioavailability / plasma pharmacokinetics; assay type: in vivo; conditions: rat, po, p.o. 1 mg/kg, male SD rats, read-out: Cmax ng/ml
readout: Cmax (ng/mL)
Output spec: scalar in ng/mL, unitless text.

Reported Cmax, compound CNC(=O)[C@@]12C[C@@H]1[C@@H](n1cnc3c(NC)nc(C#Cc4ccc(Cl)s4)nc31)[C@H](O)[C@@H]2O : ____ 29

----------
biological target: hA2AAR (Homo sapiens (Human)); experiment: Radioligand binding at hA2AAR, HEK293 cell membranes, [3H]CGS21680; details: inhibition of binding at 10 μM
readout: hA2AAR % inhibition (%)
Lab book: enter the figure in %, no units written.

CNC(=O)[C@]12CC1[C@@H](n1cnc3c(NC)nc(-n4cc(-c5ncccn5)nn4)nc31)[C@H](O)C2O (stereo partly drawn)    27

API: value(readout= hA2AAR % inhibition, system= hA2AAR (Homo sapiens (Human)), query= CNC(=O)[C@]12CC1[C@@H](n1cnc3c(NC)nc(-n4cc(-c5ccco5)nn4)nc31)[C@H](O)C2O (stereo partly drawn) ) 51

----------
biological target: Alpha 2C adrenergic receptor (Homo sapiens (Human), UniProt P18825); assay: Off-target binding, α2C; conditions: read-out: Ki class at α2C
Sequence (P18825 whole entry): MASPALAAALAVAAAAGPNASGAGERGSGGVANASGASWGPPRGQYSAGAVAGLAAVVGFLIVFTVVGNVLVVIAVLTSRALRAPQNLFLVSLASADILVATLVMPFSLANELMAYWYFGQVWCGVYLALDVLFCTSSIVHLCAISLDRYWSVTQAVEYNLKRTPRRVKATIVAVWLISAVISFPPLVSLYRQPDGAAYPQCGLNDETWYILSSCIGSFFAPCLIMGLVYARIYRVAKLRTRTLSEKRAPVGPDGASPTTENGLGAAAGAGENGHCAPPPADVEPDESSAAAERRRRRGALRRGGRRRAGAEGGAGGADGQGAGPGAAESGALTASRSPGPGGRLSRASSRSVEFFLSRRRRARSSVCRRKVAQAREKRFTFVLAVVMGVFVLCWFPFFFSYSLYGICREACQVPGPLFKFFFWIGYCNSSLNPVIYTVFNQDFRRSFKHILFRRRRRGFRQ
pKi: −log10 of the molar value.
readout: pKi

Quick one: pKi of CNC(=O)C12CC1C(n1cnc3c(NCc4cccc(Cl)c4)nc(C#Cc4ccc(F)c(F)c4)nc31)C(O)C2O (single isomer, unassigned) ? 5.00 to 6.00
